Target: human DLL1 protein (Acro, Cat. No. DL1-H52H8) (human) (UniProt O00548)
Sequence (O00548 18-540 limits assumed): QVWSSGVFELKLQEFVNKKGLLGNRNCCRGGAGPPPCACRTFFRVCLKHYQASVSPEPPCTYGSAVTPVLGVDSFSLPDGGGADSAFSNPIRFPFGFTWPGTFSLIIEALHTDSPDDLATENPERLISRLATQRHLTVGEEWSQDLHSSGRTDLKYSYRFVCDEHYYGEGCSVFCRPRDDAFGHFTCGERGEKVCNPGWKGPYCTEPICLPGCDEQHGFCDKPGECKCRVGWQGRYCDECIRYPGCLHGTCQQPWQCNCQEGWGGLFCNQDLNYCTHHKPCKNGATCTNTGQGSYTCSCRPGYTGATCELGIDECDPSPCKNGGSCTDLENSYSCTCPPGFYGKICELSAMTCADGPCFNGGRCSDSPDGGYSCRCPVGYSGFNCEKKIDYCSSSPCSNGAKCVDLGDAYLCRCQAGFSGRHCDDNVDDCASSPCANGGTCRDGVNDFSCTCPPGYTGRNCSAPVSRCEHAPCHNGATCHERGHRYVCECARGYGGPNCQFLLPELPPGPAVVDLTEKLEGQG
Experiment: ELISA, coated hDLL1; maximum over 0.1, 1, 10, 100 nM antibody
recorded-metric: Emax of OD450 nm binding value (OD450 nm)
Give the quantity in OD450 nm, number only.

As a guide, the following entries are already answered.
binder	unit-abbreviation	Emax of OD450 nm binding value
BI3 (antibody, human IgG1, kappa, V domains shown) VH: QVQLVQSGAEVKKPGASVKVSCKASGYTFTSYYVHWVRQAPGQGLEWMVIINPGGGTTSYAQKFLGRVTMTRDTSTNTVYMELKSLRSEDTAVYYCARGEAVTGNYFYYGMDVWGQGTTVTVSS VL: DIQMTQSPSAMSASVGDRVTITCRASQGISNYLVWFQQKPGKAPKRLIYAVSSLYSGVPSRFSGSGSGTEFTLTISSLQPEDFATYYCLQHDSYPYTFGQGTKLEIKR	OD450 nm	0.14
Hab009VL2aVH1-hFc (scFv, part only; not given: VL-VH linker and human IgG1 Fc, V domains shown, not shown: another chain or arm of the molecule; a dimerising Fc or GST; small tags and cut ends) VL: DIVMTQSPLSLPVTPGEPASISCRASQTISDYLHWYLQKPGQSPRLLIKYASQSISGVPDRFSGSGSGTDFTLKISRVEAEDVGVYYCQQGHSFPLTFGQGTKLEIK VH: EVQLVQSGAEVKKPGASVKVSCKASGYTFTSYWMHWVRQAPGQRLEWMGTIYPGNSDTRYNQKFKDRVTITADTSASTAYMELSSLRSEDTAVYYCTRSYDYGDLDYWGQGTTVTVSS	OD450 nm	0.07
Hab006VL4VH2-hFc (scFv, part only; not given: scFv linker and human IgG1 Fc, V domains shown, not shown: another chain or arm of the molecule; a dimerising Fc or GST; small tags and cut ends) VL: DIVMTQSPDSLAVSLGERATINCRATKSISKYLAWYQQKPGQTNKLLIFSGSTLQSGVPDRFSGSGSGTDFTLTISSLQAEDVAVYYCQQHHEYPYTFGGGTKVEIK VH: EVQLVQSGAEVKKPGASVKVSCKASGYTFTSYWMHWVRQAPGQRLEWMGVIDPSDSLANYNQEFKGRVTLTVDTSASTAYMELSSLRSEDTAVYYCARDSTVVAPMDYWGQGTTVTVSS	OD450 nm	0.05

QUERY: Fill blank: measured Emax of OD450 nm binding value of the binder Hab014VL1VH2-hFc (scFv, part only; not given: VL-VH linker and human IgG1 Fc, V domains shown, not shown: another chain or arm of the molecule; a dimerising Fc or GST; small tags and cut ends) VL: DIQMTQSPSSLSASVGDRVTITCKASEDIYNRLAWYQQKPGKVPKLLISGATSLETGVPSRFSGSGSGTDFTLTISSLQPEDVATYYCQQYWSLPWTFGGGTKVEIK VH: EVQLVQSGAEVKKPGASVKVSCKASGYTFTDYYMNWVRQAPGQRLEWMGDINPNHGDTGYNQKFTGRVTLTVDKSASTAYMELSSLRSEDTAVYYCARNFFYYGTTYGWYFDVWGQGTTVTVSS is ____.
RESULT: 0.1

QUERY: Fill blank: measured Emax of OD450 nm binding value of the binder Hab015VL4VH1a-hFc (scFv, part only; not given: scFv linker and human IgG1 Fc, V domains shown, not shown: another chain or arm of the molecule; a dimerising Fc or GST; small tags and cut ends) VL: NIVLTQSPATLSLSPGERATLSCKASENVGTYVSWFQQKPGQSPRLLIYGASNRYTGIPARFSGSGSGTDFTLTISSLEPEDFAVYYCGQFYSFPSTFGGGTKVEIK VH: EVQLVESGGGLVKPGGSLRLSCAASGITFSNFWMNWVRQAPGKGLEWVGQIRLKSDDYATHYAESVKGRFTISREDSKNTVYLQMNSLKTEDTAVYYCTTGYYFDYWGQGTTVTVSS is ____.
RESULT: 0.44
